Origin of measurements: paper PMC8868383

test: Plasma pharmacokinetics after single oral administration of CAP; details: human, plasma, oral
Each entry below carries its reported Cmax.

Past entries and their recorded results:
# compound, recorded.endpoint, assay.result
data = [
    ("O=C(O)CCc1ccc(O)c(O)c1 [DHCA, dihydrocaffeic acid]", "Cmax", "1 to 2 ng/mL"),
    ("COc1cc(CCC(=O)O)ccc1O [DHFA, dihydroferulic acid]", "Cmax", "11 to 20 ng/mL"),
    ("COc1ccc(/C=C/C(=O)O)cc1O", "Cmax", "0.9 to 2 ng/mL"),
    ("C[C@H]1[C@H](C)CC[C@]2(C(=O)O)CC[C@]3(C)C(=CC[C@@H]4[C@@]5(C)C[C@@H](O)[C@H](O)[C@@](C)(CO)[C@@H]5[C@H](O)C[C@]43C)[C@H]12", "Cmax", "36 to 68 ng/mL"),
    ("O=C(O)CCc1cccc(O)c1 [HPP, 3-(3-hydroxyphenyl)propionic acid]", "Cmax", "32 to 42 ng/mL"),
    ("O=C(O)/C=C/c1ccc(O)c(O)c1", "Cmax", "0.3 to 0.5 ng/mL"),
]

Then this compound:
Query: Identify Cmax associated with the compound C[C@H]1[C@H](C)CC[C@]2(C(=O)O)CC[C@]3(C)C(=CC[C@@H]4[C@@]5(C)C[C@@H](O)[C@H](O)[C@@](C)(CO)[C@@H]5CC[C@]43C)[C@H]12
Response: 133 to 259 ng/mL

###

assay: Plasma pharmacokinetics after single oral administration of CAP; conditions: human, plasma, po, 4 g
recorded.endpoint: AUC(0-t) (ng·h/mL)

(1) C[C@H]1[C@H](C)CC[C@]2(C(=O)O)CC[C@]3(C)C(=CC[C@@H]4[C@@]5(C)C[C@@H](O)[C@H](O)[C@@](C)(CO)[C@@H]5[C@H](O)C[C@]43C)[C@H]12
(2) COc1cc(CCC(=O)O)ccc1O [DHFA, dihydroferulic acid]
(3) C[C@H]1[C@H](C)CC[C@]2(C(=O)O)CC[C@]3(C)C(=CC[C@@H]4[C@@]5(C)C[C@@H](O)[C@H](O)[C@@](C)(CO)[C@@H]5CC[C@]43C)[C@H]12
(4) O=C(O)CCc1ccc(O)c(O)c1 [DHCA, dihydrocaffeic acid]
Query: Please list the entries, largest AUC(0-t) first. Please express your ranking as an ordered list of the labels.
Response: 3, 1, 2, 4
(3: 935 ng·h/mL, 1: 187 ng·h/mL, 2: 77 ng·h/mL, 4: 6 ng·h/mL)

###

test: Plasma pharmacokinetics after single oral administration of CAP; details: human, plasma, po, 4 g
recorded.endpoint: Cmax (ng/mL)

# compound, readout.unit, Cmax
rows = [
    ("O=C(O)/C=C/c1ccc(O)c(O)c1", "ng/mL", 1),
]

(A) C[C@H]1[C@H](C)CC[C@]2(C(=O)O)CC[C@]3(C)C(=CC[C@@H]4[C@@]5(C)C[C@@H](O)[C@H](O)[C@@](C)(CO)[C@@H]5[C@H](O)C[C@]43C)[C@H]12
(B) O=C(O)CCc1cccc(O)c1 [HPP, 3-(3-hydroxyphenyl)propionic acid]
Query: Of the two listed items, which has the higher Cmax? First: A Second: B # respond with the chosen item's label
Response: A

###

test: Analyte levels in screening and baseline plasma and urine (low phytochemical diet check); conditions: screening visit, uncontrolled diet, with enzyme hydrolysis, mean ± SEM, n = 4
recorded.endpoint: Screening Total, urine concentration (ng/mL)

Past entries and their recorded results:
# compound, recorded.endpoint, assay.result
records = [
    ("O=C(O)CCc1cccc(O)c1 [HPP, 3-(3-hydroxyphenyl)propionic acid]", "Screening Total, urine concentration", 91),
    ("O=C(O)/C=C/c1ccc(O)c(O)c1", "Screening Total, urine concentration", 260),
    ("COc1ccc(/C=C/C(=O)O)cc1O", "Screening Total, urine concentration", 472),
]

(P) COc1cc(CCC(=O)O)ccc1O [DHFA, dihydroferulic acid]
(Q) O=C(O)CCc1ccc(O)c(O)c1 [DHCA, dihydrocaffeic acid]
(R) C[C@H]1[C@H](C)CC[C@]2(C(=O)O)CC[C@]3(C)C(=CC[C@@H]4[C@@]5(C)C[C@@H](O)[C@H](O)[C@@](C)(CO)[C@@H]5CC[C@]43C)[C@H]12
Query: Rank entries according to their Screening Total, urine concentration, from the largest number down. Please express your ranking as an ordered list of the labels.
Response: P, Q, R

###

assay: Plasma pharmacokinetics after single oral administration of CAP; conditions: human, plasma, po, 2 g
recorded.endpoint: AUC(0-t) (ng·h/mL)

Past entries and their recorded results:
# compound, recorded.endpoint, readout.unit, assay.result
rows = [
    ("C[C@H]1[C@H](C)CC[C@]2(C(=O)O)CC[C@]3(C)C(=CC[C@@H]4[C@@]5(C)C[C@@H](O)[C@H](O)[C@@](C)(CO)[C@@H]5[C@H](O)C[C@]43C)[C@H]12", "AUC(0-t)", "ng·h/mL", 101),
    ("COc1cc(CCC(=O)O)ccc1O [DHFA, dihydroferulic acid]", "AUC(0-t)", "ng·h/mL", 42),
    ("C[C@H]1[C@H](C)CC[C@]2(C(=O)O)CC[C@]3(C)C(=CC[C@@H]4[C@@]5(C)C[C@@H](O)[C@H](O)[C@@](C)(CO)[C@@H]5CC[C@]43C)[C@H]12", "AUC(0-t)", "ng·h/mL", 364),
    ("O=C(O)/C=C/c1ccc(O)c(O)c1", "AUC(0-t)", "ng·h/mL", 1),
    ("COc1ccc(/C=C/C(=O)O)cc1O", "AUC(0-t)", "ng·h/mL", 5),
]

(a) O=C(O)CCc1ccc(O)c(O)c1 [DHCA, dihydrocaffeic acid]
(b) O=C(O)CCc1cccc(O)c1 [HPP, 3-(3-hydroxyphenyl)propionic acid]
Query: Of the two listed items, which has the higher AUC(0-t)? First: a Second: b # respond with the chosen item's label
Response: b
(b: 100 ng·h/mL, a: 3 ng·h/mL)

###

test: Plasma pharmacokinetics after single oral administration of CAP; conditions: human, plasma, po, 2 g
recorded.endpoint: Tmax (h)

Past entries and their recorded results:
# compound, Tmax, h
rows = [
    ("C[C@H]1[C@H](C)CC[C@]2(C(=O)O)CC[C@]3(C)C(=CC[C@@H]4[C@@]5(C)C[C@@H](O)[C@H](O)[C@@](C)(CO)[C@@H]5CC[C@]43C)[C@H]12 [AA, asiatic acid]", 2),
    ("COc1cc(CCC(=O)O)ccc1O [DHFA, dihydroferulic acid]", 3.4),
    ("COc1ccc(/C=C/C(=O)O)cc1O [IFA, isoferulic acid]", 1.3),
]

(A) O=C(O)CCc1ccc(O)c(O)c1 [DHCA, dihydrocaffeic acid]
(B) O=C(O)CCc1cccc(O)c1 [HPP, 3-(3-hydroxyphenyl)propionic acid]
(C) C[C@H]1[C@H](C)CC[C@]2(C(=O)O)CC[C@]3(C)C(=CC[C@@H]4[C@@]5(C)C[C@@H](O)[C@H](O)[C@@](C)(CO)[C@@H]5[C@H](O)C[C@]43C)[C@H]12 [MA, madecassic acid]
Query: Rank entries according to their Tmax, from the largest number down. Please express your ranking as an ordered list of the labels.
Response: B, A, C
(B: 6 h, A: 3.25 h, C: 2 h)

###

assay: Plasma pharmacokinetics after single oral administration of CAP; settings: human, plasma, po, 4 g
Each entry below carries its reported AUC(0-t).
Provide only the numeric value, understood in ng·h/mL.

# molecule, AUC(0-t) / ng·h/mL
measured = [
    ("O=C(O)CCc1cccc(O)c1 [HPP, 3-(3-hydroxyphenyl)propionic acid]", 189),
]

Query: Identify AUC(0-t) associated with the molecule COc1ccc(/C=C/C(=O)O)cc1O [IFA, isoferulic acid]
Response: 8

Query: Identify AUC(0-t) associated with the molecule O=C(O)/C=C/c1ccc(O)c(O)c1 [CA, caffeic acid]
Response: 3
